// data source = patent US20240239790A1

Recorded IC50 values for a group of molecules are listed next.
Target Entity: DNA-PK (Homo sapiens)
Construct: purchased Invitrogen PR9107A
Procedure Text: DNA-PK Assay for Biochemical Enzymatic Inhibition (ADP Glo Kinase assay)
Condition Info: DNA-PK enzyme, Table 1

Answered cases to consult:
Molecule | IC50
O=C(COc1cnc(N[C@H]2CC[C@@H](Oc3nc(N4CCOCC4)cc4ncccc34)CC2)nc1)N1CCOCC1 | 0.5 to 1 nM
CS(=O)(=O)c1cnc2cc(N3CCOCC3)nc(O[C@H]3CC[C@@H](NC(=O)c4ncco4)CC3)c2c1 [Compound 204c] | 1 to 10 nM
CN(C)C(=O)COc1ccnc(N[C@H]2CC[C@@H](Oc3nc(N4CCOCC4)cc4ncccc34)CC2)n1 | < 0.5 nM

Task item: Return reported IC50; argument: CS(=O)(=O)NC(=O)c1cnc2cc(N3CCOCC3)nc(O[C@H]3CC[C@@H](n4ccnc4)CC3)c2c1
Reply: 0.5 to 1 nM

Task item: Name the reported IC50 value associated with the molecule CN(C)C(=O)Cn1cccc1C(=O)N[C@H]1CC[C@@H](Oc2nc(N3CCOCC3)cc3ncccc23)CC1
Reply: 1 to 10 nM

Task item: # get_value(readout='IC50', item= CN(C)C(=O)c1cnc2cc(N3CCOCC3)nc(O[C@H]3CC[C@@H](n4ccnc4)CC3)c2c1 )
Reply: 10 to 150 nM

Task item: Reported IC50, molecule CN(C)C(=O)COc1ccc(C(=O)N[C@H]2CC[C@@H](Oc3nc(N4CCOCC4)cc4ncccc34)CC2)cn1 : ____
Reply: 0.5 to 1 nM

Task item: Need IC50, item CN1CCN(C(=O)COc2cnc(N[C@H]3CC[C@@H](Oc4nc(N5CCOCC5)cc5ncccc45)CC3)nc2)CC1
Reply: < 0.5 nM

Task item: Item under review: CS(=O)(=O)NCCOc1cnc(N[C@H]2CC[C@@H](Oc3nc(N4CCOCC4)cc4ncccc34)CC2)nc1 . Reported IC50?
Reply: < 0.5 nM
